Reference source: ChEMBL document CHEMBL3822455

System: Hepatitis C virus
protocol: Antiviral activity against HCV genotype 2a assessed as replicon RNA level measured after 3 days by real-time PCR method
Type: functional, organism-based, Hepacivirus hominis
test_context: 72 h
quantity_name: EC50 (pM)
The response must be a number in pM with no trailing unit.

// solved cases for EC50 follow
>  <compound>
COC(=O)N[C@H](C(=O)N1CCC[C@H]1c1ncc(-c2ccc3c(c2)OC(c2ccc(OC(F)(F)F)cc2)n2c-3cc3cc(-c4cnc([C@@H]5CCCN5C(=O)[C@@H](NC(=O)OC)C(C)C)[nH]4)ccc32)[nH]1)C(C)C (mixture of isomers)

>  <system_name>
Hepatitis C virus

>  <quantity_name>
EC50

>  <output_unit>
pM

>  <endpoint_value>
5

$$$$
>  <compound>
COC(=O)N[C@H](C(=O)N1CCC[C@H]1c1ncc(-c2ccc3c(c2)OC(c2ccc(C)cc2)n2c-3cc3cc(-c4cnc([C@@H]5CCCN5C(=O)[C@@H](NC(=O)OC)C(C)C)[nH]4)ccc32)[nH]1)C(C)C (some centres not stated)

>  <system_name>
Hepatitis C virus

>  <quantity_name>
EC50

>  <output_unit>
pM

>  <endpoint_value>
10

$$$$
>  <compound>
COC(=O)N[C@H](C(=O)N1CCC[C@H]1c1ncc(-c2ccc3c(c2)OC(c2cccc(-c4cn[nH]c4)c2)n2c-3cc3cc(-c4cnc([C@@H]5CCCN5C(=O)[C@@H](NC(=O)OC)C(C)C)[nH]4)ccc32)[nH]1)C(C)C (mixture of isomers)

>  <system_name>
Hepatitis C virus

>  <quantity_name>
EC50

>  <output_unit>
pM

>  <endpoint_value>
30

$$$$
>  <compound>
COC(=O)N[C@H](C(=O)N1CCC[C@H]1c1ncc(-c2ccc3c(c2)OC(c2cccc(F)c2)n2c-3cc3cc(-c4cnc([C@@H]5CCCN5C(=O)[C@@H](NC(=O)OC)C(C)C)[nH]4)ccc32)[nH]1)C(C)C (some centres not stated)

>  <system_name>
Hepatitis C virus

>  <quantity_name>
EC50

>  <output_unit>
pM

>  <endpoint_value>
4

$$$$

EC50 reading for COC(=O)N[C@H](C(=O)N1CCC[C@H]1c1ncc(-c2ccc3c(c2)OC(c2cccc(Cl)c2)n2c-3cc3cc(-c4cnc([C@@H]5CCCN5C(=O)[C@@H](NC(=O)OC)C(C)C)[nH]4)ccc32)[nH]1)C(C)C (some centres not stated) : 10
